Molecular target: BIR3 domain of XIAP (Homo sapiens, UniProt P98170)
Construct: BIR3 domain, corresponding to amino acids 241-356 of XIAP
Sequence (P98170 with tags, fused parts or gaps): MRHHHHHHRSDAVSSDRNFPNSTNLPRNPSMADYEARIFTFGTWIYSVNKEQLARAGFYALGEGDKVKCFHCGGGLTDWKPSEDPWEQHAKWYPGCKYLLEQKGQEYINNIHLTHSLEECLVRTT
Experiment: TR-FRET assay for BIR3 (inhibition of binding of XIAP BIR3 domain to SMAC-derived Peptide A)
Settings: 6x Histidine-tagged BIR3 domain (amino acids 241-356 of XIAP) 10 nM, Peptide A 20 nM
measurement label: IC50

A selection of reference data follows.
molecule	result
CN[C@@H](C)C(=O)N[C@@H](CCS(C)(=O)=O)C(=O)N1c2ncccc2C[C@H]1C(=O)Nc1ccccc1	> 54.8 µM
CN[C@@H](C)C(=O)N[C@H](C(=O)N1c2ncccc2C[C@@H]1C(=O)NCc1ccccc1)C(C)C	45.9 µM
CN[C@@H](C)C(=O)N[C@H](C(=O)N1c2ncccc2C[C@H]1C(=O)Nc1ccc2ccccc2c1)C(C)C	> 54.8 µM

Given item CN[C@@H](C)C(=O)N[C@H](C(=O)N1c2ncccc2C[C@@H]1C(=O)Nc1ccccc1)C(C)C , the value recorded as its IC50 is > 54.8 µM

Given item CN[C@@H](C)C(=O)N[C@H](C(=O)N1c2ncccc2C[C@H]1C(=O)NCCS(C)(=O)=O)C(C)C , the value recorded as its IC50 is > 54.8 µM

Given item CN[C@@H](C)C(=O)N[C@H](C(=O)N1c2ncccc2C[C@@H]1C(=O)Nc1ccccc1C)C(C)C , the value recorded as its IC50 is > 54.8 µM

Given item CN[C@@H](C)C(=O)N[C@H](C(=O)N1c2ncccc2C[C@@H]1C(=O)Nc1c(F)cccc1F)C1CCOCC1 , the value recorded as its IC50 is > 54.8 µM

Given item CC[C@H](NC)C(=O)N[C@H](C(=O)N1c2ncccc2C[C@@H]1C(=O)Nc1ccccc1)C1CCCCC1 , the value recorded as its IC50 is > 54.8 µM

Given item CC[C@H](NCCO)C(=O)N[C@H](C(=O)N1c2ncccc2C[C@H]1C(=O)Nc1ccccc1)C(C)C , the value recorded as its IC50 is > 54.8 µM

Given item CN[C@@H](C)C(=O)N[C@H](C(=O)N1c2ncccc2C[C@H]1C(=O)NC(C)c1ccccc1)C(C)C (stereo partly drawn) , the value recorded as its IC50 is 21.5 µM

Given item CC(C)[C@H](NC(=O)[C@H](C)NCCO)C(=O)N1c2ncccc2C[C@H]1C(=O)Nc1ccccc1 , the value recorded as its IC50 is > 54.8 µM

Given item CN[C@@H](C)C(=O)N[C@H](C(=O)N1c2ncccc2C[C@H]1C(=O)NCCS(=O)(=O)N(C)C)C(C)C , the value recorded as its IC50 is > 54.8 µM

Given item CN[C@@H](C)C(=O)N[C@H](C(=O)N1c2ncccc2C[C@H]1C(=O)Nc1c(F)cccc1F)C1CCOCC1 , the value recorded as its IC50 is > 54.8 µM

Given item CN[C@@H](C)C(=O)N[C@H](C(=O)N1c2ncccc2C[C@H]1C(=O)Nc1c(F)cccc1F)C(C)C , the value recorded as its IC50 is > 54.8 µM

Given item CCN[C@@H](C)C(=O)N[C@H](C(=O)N1c2ncccc2C[C@H]1C(=O)Nc1ccccc1)C1CCCCC1 , the value recorded as its IC50 is > 54.8 µM

* * *

Molecular target: BIR2 domain of XIAP (Homo sapiens, UniProt P98170, C202A/C213G)
Construct: 6× Histidine-tagged BIR2 domain, corresponding to amino acids 124-240 of XIAP
Sequence (P98170 with tags, fused parts or gaps C202A/C213G): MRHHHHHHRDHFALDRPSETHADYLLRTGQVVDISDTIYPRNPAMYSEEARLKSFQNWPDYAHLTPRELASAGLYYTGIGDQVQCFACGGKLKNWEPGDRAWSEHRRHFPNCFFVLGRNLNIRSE
Assay: TR-FRET assay for BIR2 (inhibition of binding of XIAP BIR2 domain to SMAC-derived Peptide A)
Settings: 6x Histidine-tagged BIR2 domain (amino acids 124-240 of XIAP) 10 nM, Peptide A 20 nM
measurement label: IC50

A selection of reference data follows.
compound	IC50
CN[C@@H](C)C(=O)N[C@H](C(=O)N1c2ncccc2C[C@H]1C(=O)Nc1ccccc1F)C(C)C [Example 36]	0.0127 µM
CN[C@@H](C)C(=O)N[C@H](C(=O)N1c2ncccc2C[C@H]1C(=O)NCc1cc(F)ccc1C)C(C)C [Example 55]	0.139 µM
CC(C)[C@H](NC(=O)[C@H](C)NCCS(C)(=O)=O)C(=O)N1c2ncccc2C[C@H]1C(=O)Nc1c(F)cccc1F [Example 92]	2.57 µM

Given item CN[C@@H](C)C(=O)N[C@H](C(=O)N1c2ncccc2C[C@H]1C(=O)NCCS(C)(=O)=O)C(C)C [Example 51] , the value recorded as its IC50 is 0.828 µM

Given item CN[C@@H](C)C(=O)N[C@H](C(=O)N1c2ncccc2C[C@@H]1C(=O)Nc1ccccc1C(=O)c1ccccc1)C(C)C [Example 27] , the value recorded as its IC50 is 2.11 µM

Given item CC[C@H](NC)C(=O)N[C@H](C(=O)N1c2ncccc2C[C@H]1C(=O)Nc1ccccc1)C(C)C [Example 85] , the value recorded as its IC50 is 0.0691 µM

Given item CN[C@@H](C)C(=O)N[C@H](C(=O)N1c2ncccc2C[C@H]1C(=O)Nc1ccc(Br)cc1F)C(C)C [Example 63] , the value recorded as its IC50 is 0.032 µM
